Origin of the recorded values: patent US20220133913A1

target_entity: T1, human αvβ3 integrin ITGAVB3 (human, UniProt P06756 31-992; P05106 27-718, limits assumed)
T1 construct: Recombinant heterodimer used as immunogen, ELISA coating and SPR ligand; also called A5B3; A5b3
test_summary: ELISA of soluble VHH, induced at 30 C; coating not given
measurement_label: OD490

| binder | OD490 |
| --- | --- |
| VHH-16 (VHH, also called clone 16) VHH: DVQLVESGGGSVQPGGSLRLSCAASGYTVENSCMAWFRQAPGKEREVVATIVTNNATGTFYADSVKGRFTVSQDNAKNTLNLQMNSLEPEDTAMYYCAADTKWIVCSRGYRYTPNWANQFKYWGQGTQVTVSS | 2.02 |
| VHH-22 (VHH, also called clone 22) VHH: QVQLVESGGGSVQAGGSLRLSCVVSGYTCSVYDMIWYRQPPGKEREFVSLINSNGRTTYADSVKGRFTISQNNAKNTVYLQMNSLKPEDTAMYYCHAACYSPSRLNYWGQGTLVTVSS | 1.21 |

Lookup: Sample VHH-23 (VHH, also called clone 23) VHH: HVQLVESGGGSVQTGGSLRLSCAASGYTSSTVYMAWFRQTPGKQREGVAAIYTGGGPTYYADSVKGRFTISQDNAKNTVYLQMNTLKPEDTAMYYCAADRYVYRLVTNWYRPSFYTYWGQGTQVTVSS — what was its OD490?
Found: 0.141
